Cited source for all entries: patent US20240059799A1

Molecular target: T1, recombinant human TL1A (human, UniProt O95150 71-251)
T1 construct: homotrimer; biotinylated for SPR capture; the ELISA paragraphs say only 'recombinant TL1A'; also called TNFSF15
T1 chain: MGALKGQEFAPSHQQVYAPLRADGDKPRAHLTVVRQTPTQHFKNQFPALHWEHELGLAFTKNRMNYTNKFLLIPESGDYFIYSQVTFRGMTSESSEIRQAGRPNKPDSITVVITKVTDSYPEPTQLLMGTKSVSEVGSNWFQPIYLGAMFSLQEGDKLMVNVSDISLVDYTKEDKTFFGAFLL
Assay: competition ELISA vs bio-TL1A-0002
result type: Bioactivity relative to TL1A-0002 (fold)
Use fold as the unit, but write only the number.

Some entries whose results are on file:
>  <binder>
TL1A-0051 (antibody, human IgG1, kappa, V domains shown, IgG1/kappa; IGHV3-7*01 / IGKV1-39*01 grafts) VH: EVQLVESGGGLVQPGGSLRLSCAASGYDFTYYGISWVRQAPGKGLEWVAWISTYNGNTHYARMLQGRFTISRDNAKNSLYLQMNSLRAEDTAVYYCARENYYGSGAYRGGMDVWGQGTTVTVSS VL: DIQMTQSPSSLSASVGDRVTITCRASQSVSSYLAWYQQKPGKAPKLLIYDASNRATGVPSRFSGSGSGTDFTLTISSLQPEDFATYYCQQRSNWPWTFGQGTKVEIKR

>  <Bioactivity relative to TL1A-0002 (fold)>
1

$$$$
>  <binder>
TL1A-0002 (antibody, human IgG1, kappa, V domains shown, human IgG1/kappa, effector function minimized; also called bioTL1A-0002 (biotinylated)) VH: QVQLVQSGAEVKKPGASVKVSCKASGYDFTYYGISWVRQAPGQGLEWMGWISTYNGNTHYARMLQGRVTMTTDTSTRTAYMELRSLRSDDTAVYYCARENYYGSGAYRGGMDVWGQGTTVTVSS VL: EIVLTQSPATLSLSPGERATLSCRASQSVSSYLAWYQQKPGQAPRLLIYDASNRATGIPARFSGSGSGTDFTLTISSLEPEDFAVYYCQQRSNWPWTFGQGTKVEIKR

>  <Bioactivity relative to TL1A-0002 (fold)>
1

$$$$

The record that follows has no Bioactivity relative to TL1A-0002 shown yet.
Lookup: Look up Bioactivity relative to TL1A-0002: TL1A-0048 (antibody, human IgG1, kappa, V domains shown, IgG1/kappa; VH graft on IGHV1-2*02) VH: QVQLVQSGAEVKKPGASVKVSCKASGYDFTYYGISWVRQAPGQGLEWMGWISTYNGNTHYARMLQGRVTMTRDTSISTAYMELSRLRSDDTAVYYCARENYYGSGAYRGGMDVWGQGTTVTVSS VL: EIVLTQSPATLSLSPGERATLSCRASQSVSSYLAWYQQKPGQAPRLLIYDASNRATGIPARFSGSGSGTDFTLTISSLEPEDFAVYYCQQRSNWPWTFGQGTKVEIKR
Found: 0.9
